Item-by-item account of cell viability
- System: P12-Ichikawa
- procedure-summary: cell viability relative to DMSO control; higher = less cytotoxic
- recorded-conditions: HPLM + 10% dialyzed FBS; 48 h; 0.19 µM
Response body: numeric value in %, unit text excluded.

Worked cases, cell viability given:
CC[C@H](CO)Nc1nc(NCc2ccccc2)c2ncn(C(C)C)c2n1	95.1
COCCCC/C(=N\OCCN)c1ccc(C(F)(F)F)cc1	80.8
CC1=CC/2=C(C=C1C)N(C[C@@H](O)[C@@H](O)[C@@H](O)CO)C/3=N/C(=O)NC(=O)C3=N2	129

Any idea what its cell viability is? The compound is C[C@]12CC[C@H]3[C@@H](CC[C@@]45O[C@@H]4C(O)=C(C#N)C[C@]35C)[C@@H]1CC[C@@H]2O 116

Any idea what its cell viability is? The compound is CC(C)C[C@H](CC(=O)O)C(=O)N[C@@H](Cc1c[nH]c2ccccc12)C(=O)N[C@@H](C)c1ccccc1 111

Any idea what its cell viability is? The compound is COCC(=O)NC/C=C/c1ccc2ncnc(Nc3ccc(Oc4ccc(C)nc4)c(C)c3)c2c1 92.3

Any idea what its cell viability is? The compound is CC(C)(C)[C@]1(O)C[C@@H]2OC(=O)C[C@@]23C(=O)O[C@@H]2OC(=O)[C@H](O)C213 (stereo not given in full) 112

Any idea what its cell viability is? The compound is COC(=O)CCC1=C(C)C2=CC3=NC(=CC4=C(C)C(=C([NH]4)C=C\5N=C(C=C1[NH]2)\C(=C5C)CCC(O)=O)C=C)\C6=C\C=C(/[C@@H](C(=O)OC)[C@@]36C)C(=O)OC 105

Any idea what its cell viability is? The compound is OC[C@H]1OC(O)C[C@@H](O)[C@@H]1O (stereo not given in full) 120

Any idea what its cell viability is? The compound is CCCCCN(C)CCC(O)(P(=O)([O-])O)P(=O)(O)O 97.6

###

Item-by-item account of cell viability
- Test system: NOMO1
- procedure-summary: cell viability relative to DMSO control; higher = less cytotoxic
- recorded-conditions: RPMI 5 mM glucose + 10% dialyzed FBS; 48 h; 1.71 µM
Answers without a unit are incomplete; give the number and then its unit.

Nc1nccc(-c2ccc3noc(-c4ccc(Cl)cc4)c3c2)n1	106%
c1cc2c(cc1[C@H]1OC[C@H]3[C@@H]1CO[C@@H]3c1ccc3c(c1)OCO3)OCO2	164%
NC[C@H](O)c1ccc(O)c(O)c1	93.4%
CO[C@H]1C[C@@H]2CC[C@@H](C)[C@@](O)(O2)C(=O)C(=O)N2CCCC[C@H]2C(=O)O[C@H]([C@@H](C)C[C@@H]2CC[C@@H](O)[C@H](OC)C2)CC(=O)[C@H](C)/C=C(\C)[C@@H](O)[C@@H](OC)C(=O)[C@H](C)C[C@H](C)/C=C/C=C/C=C/1C	115%
C[C@H](NC(=O)[C@@H](O)c1cc(F)cc(F)c1)C(=O)N[C@@H]1C(=O)N(C)c2ccccc2-c2ccccc21	113%

Any idea what its cell viability is? The compound is CCC(=O)NC[C@H](Cc1ccc(OCCc2nc(-c3ccccc3)oc2C)cc1)N/C(C)=C\C(=O)c1ccc(C(F)(F)F)cc1 107%
